The reported numbers originate from patent US20250171534A1.

System: T1, human LILRB1 expressed on cells (human, UniProt Q8NHL6 24-650)
T1 construct: In 293T cells it was expressed from pCMV3-LILRB1-GFP; also called CHO-LILRB1; Jurkat-LILRB1
T1 sequence (Q8NHL6 other isoform, or with tags, fused parts or gaps limits assumed): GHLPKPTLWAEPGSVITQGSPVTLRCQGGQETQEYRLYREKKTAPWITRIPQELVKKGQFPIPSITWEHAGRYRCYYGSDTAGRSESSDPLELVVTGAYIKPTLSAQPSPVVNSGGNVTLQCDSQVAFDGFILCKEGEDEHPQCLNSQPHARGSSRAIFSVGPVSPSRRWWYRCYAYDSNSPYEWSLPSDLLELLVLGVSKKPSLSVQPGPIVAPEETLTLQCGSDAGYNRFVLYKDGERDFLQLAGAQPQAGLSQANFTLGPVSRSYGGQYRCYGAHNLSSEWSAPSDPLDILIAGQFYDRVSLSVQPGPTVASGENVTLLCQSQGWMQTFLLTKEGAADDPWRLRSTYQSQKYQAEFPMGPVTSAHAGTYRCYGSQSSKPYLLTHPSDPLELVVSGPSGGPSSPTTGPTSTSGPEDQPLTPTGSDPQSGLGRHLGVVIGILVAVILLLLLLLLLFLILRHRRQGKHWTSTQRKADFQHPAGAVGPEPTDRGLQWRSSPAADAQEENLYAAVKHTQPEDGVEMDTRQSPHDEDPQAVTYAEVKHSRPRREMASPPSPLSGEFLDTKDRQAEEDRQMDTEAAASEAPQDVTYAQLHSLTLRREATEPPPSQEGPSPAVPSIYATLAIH
Test summary: flow cytometry, Jurkat-LILRB1 cells
Threshold check on EC50: strictly below 1 µg/mL is 1; on or above 1 µg/mL is -1.

Observe how each entry below is paired with its result.
Binder	Group
D2M002-122 (antibody, V domains shown) VH: QVQLVQSGAEVKKPGASVKVSCKASGYTFTSYWIEWVRQAPGQGLEWIGEILPGEGSTNYNAKFKGRVTFTTDTSTSTAYMELRSLRSDDTAVYYCARSGAGGYDSGAFAYWGQGTLVTVSS VL: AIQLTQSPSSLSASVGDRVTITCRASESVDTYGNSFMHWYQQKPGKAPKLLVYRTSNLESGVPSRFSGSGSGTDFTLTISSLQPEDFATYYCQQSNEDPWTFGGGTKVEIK	-1
D2M002-124 (antibody, V domains shown) VH: QVQLVQSGAEVKKPGASVKVSCKASGYTFTSYWIEWVRQAPGQGLEWIGEILPGSGSTNYNAKFKGRVTFTTDTSTSTAYMELRSLRSDDTAVYYCARSGAGGYDSGAFAYWGQGTLVTVSS VL: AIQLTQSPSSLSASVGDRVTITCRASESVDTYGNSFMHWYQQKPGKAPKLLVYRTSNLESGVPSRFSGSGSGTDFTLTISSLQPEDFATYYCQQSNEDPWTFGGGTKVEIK	-1
D2M002-026 (antibody, V domains shown, Hit; also called clone #26) VH: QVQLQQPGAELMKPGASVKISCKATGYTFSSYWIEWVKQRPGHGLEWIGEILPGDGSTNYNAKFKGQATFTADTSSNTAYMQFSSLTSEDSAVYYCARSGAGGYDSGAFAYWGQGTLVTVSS VL: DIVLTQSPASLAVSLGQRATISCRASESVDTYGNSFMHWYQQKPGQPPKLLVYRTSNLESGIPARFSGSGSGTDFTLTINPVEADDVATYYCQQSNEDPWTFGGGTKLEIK	-1
D2M002-126 (antibody, V domains shown, Humanized and optimized variant of D2M002-026) VH: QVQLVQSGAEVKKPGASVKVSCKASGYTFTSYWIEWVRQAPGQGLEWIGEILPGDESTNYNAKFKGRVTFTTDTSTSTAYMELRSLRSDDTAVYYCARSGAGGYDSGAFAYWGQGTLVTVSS VL: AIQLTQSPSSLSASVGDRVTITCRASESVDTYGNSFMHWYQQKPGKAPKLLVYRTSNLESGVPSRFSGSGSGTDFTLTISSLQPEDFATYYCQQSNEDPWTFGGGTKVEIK	-1

In: A record lists D2M002-101 (antibody, V domains shown, humanized and optimized variant tested beside D2M002-002; also called P211_A12) VH: QVQLVQSGAEVKKPGASVKVSCKASGYTFTRYVMHWVRQAPGQRLEWMGWINPNNEETKYSQKFKGRVTLTRDTSASTAYMELSSLRSEDTAVYYCARADLEILPYYDHARNAMDYWGQGTLVTVSS VL: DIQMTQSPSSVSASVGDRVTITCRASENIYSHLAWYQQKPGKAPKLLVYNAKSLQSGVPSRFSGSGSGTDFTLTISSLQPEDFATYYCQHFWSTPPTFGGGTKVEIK . Is its EC50 below 1 µg/mL?
Out: 1

In: A record lists D2M002-002 (antibody, V domains shown, Hit from immunised mice; also called clone #2; anti-LILRB1/2 clone #2) VH: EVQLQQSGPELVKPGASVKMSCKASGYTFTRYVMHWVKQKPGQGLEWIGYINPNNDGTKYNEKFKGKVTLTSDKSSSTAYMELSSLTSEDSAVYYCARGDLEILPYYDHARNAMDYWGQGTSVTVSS VL: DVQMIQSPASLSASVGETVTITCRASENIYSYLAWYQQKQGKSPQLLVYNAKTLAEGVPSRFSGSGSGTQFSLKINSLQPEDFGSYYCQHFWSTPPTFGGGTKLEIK . Is its EC50 below 1 µg/mL?
Out: 1

In: A record lists D2M002-103 (antibody, V domains shown, also called P212_F01) VH: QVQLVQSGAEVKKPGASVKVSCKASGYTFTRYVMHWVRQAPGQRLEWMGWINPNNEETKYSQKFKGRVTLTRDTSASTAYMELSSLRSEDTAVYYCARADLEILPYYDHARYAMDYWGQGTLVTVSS VL: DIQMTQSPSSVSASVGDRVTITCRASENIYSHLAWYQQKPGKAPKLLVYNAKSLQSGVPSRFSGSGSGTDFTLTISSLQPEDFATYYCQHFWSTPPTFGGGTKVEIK . Is its EC50 below 1 µg/mL?
Out: 1
